- Test method notes: MTT-assay, cytotoxicity of the extracts
- Type: cell-based
- Protocol conditions: human, HaCaT cells (keratinocytes), individual extracts, mean ± SD, n=3
Assay metric: IC50 (µg/mL)
Hi! Could you send only the number? It should be in µg/mL, unit omitted.

[Q] Annotate the molecule COc1cccc2c1C(=O)c1c(O)c3c(c(O)c1C2=O)C[C@@](O)(C(=O)CO)C[C@@H]3O[C@H]1C[C@H](N)[C@H](O)[C@H](C)O1 with its measured IC50.
[A] 8.6
